- Tested on: AS120
- experiment description: qHTS profiling for inhibitors of Plasmodium falciparum proliferation (AID 504749); note: nearly all actives have a fitted effect of over 60% in size
- run parameters: P. falciparum in erythrocytes, SYBR Green DNA, 72 h; series mostly up to 28.7 µM
Inconclusive results are not listed. Activity calls are given as the source filed them. Calls come from the whole dose curve; as a rule, active = well fitted inhibition curve with a large enough effect; inconclusive = small, poorly fitted or top-dose-only effect; inactive = flat fitted curve, though single readings scatter.
endpoint label: outcome

>>> reported("CNCC(=O)NC(CCCN=C(N)N)C(=O)NC(C(=O)NC(Cc1ccc(O)cc1)C(=O)NC(C(=O)NC(Cc1cnc[nH]1)C(=O)N1CCCC1C(=O)NC(C)C(=O)O)C(C)C)C(C)C (stereo not drawn)")
"inactive"
>>> reported("C=CC1=C(C(=O)O)N2C(=O)[C@@H](NC(=O)C(N=O)c3csc(N)n3)[C@H]2SC1 (stereo partly drawn)")
"inactive"
>>> reported("NC(=O)CCC1NC(=O)C(Cc2ccccc2)NC(=O)C(Cc2ccc(O)cc2)NC(=O)CCSSCC(C(=O)N2CCCC2C(=O)NC(CCCN=C(N)N)C(=O)NCC(N)=O)NC(=O)C(CC(N)=O)NC1=O (stereo not drawn)")
"inactive"
